target: Ubiquitin carboxyl-terminal hydrolase 2 (Homo sapiens, UniProt O75604)
Sequence (O75604 whole entry): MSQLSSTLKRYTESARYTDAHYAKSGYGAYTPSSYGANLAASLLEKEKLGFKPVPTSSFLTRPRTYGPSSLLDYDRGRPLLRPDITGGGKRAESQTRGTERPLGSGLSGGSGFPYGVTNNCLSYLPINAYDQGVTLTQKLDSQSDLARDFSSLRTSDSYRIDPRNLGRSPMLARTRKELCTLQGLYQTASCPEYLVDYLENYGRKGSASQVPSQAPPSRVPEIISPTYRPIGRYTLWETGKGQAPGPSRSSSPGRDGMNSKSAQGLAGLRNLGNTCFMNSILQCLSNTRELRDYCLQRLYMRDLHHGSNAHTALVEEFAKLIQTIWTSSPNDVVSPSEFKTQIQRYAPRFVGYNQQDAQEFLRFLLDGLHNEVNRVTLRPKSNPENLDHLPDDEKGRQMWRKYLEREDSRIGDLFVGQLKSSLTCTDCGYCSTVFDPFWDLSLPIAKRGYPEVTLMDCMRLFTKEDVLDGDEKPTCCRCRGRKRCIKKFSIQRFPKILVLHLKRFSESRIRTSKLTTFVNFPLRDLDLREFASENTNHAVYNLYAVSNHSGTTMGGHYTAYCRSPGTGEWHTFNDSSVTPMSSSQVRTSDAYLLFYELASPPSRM

Smiles text | Kd
OCc1cc(-c2cccs2)on1 | 900 µM
